Just for reference, PubChem BioAssay AID1963840 is where these values come from.

Test system: 695427-040-R-J1-PDC complex spheroid viability;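 further: spheroids exposed to compounds for seven days; 100% = DMSO vehicle control viability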
Assay: Anticancer human tumor 695427-040-R-J1-PDC patient-derived colon adenocarcinoma cell line growth inhibition [POLQ]
Conditions: second compound 0.0316 µM; first compound 3.16 µM; active compounds read low
Rule for this label: 1 means viability, T/C is less than 90%; -1 means viability, T/C is at least 90%.

Nc1ccn(C2OC(CO)C(O)C2(F)F)c(=O)n1 (stereo not given) + Cc1cccc(N(C)C(=O)C2C(O)CCN2c2nc(C)cc(C(F)(F)F)c2C#N)c1    1
CCCS(=O)(=O)Nc1ccc(F)c(C(=O)c2c[nH]c3ncc(-c4ccc(Cl)cc4)cc23)c1F + COC1C(OC(N)=O)C(O)C(Oc2ccc3c(O)c(NC(=O)c4ccc(O)c(CC=C(C)C)c4)c(=O)oc3c2C)OC1(C)C    -1

Query string: Find out if reported viability, T/C for CNCc1ccc(-c2[nH]c3cc(F)cc4c3c2CCNC4=O)cc1 + Cc1cccc(N(C)C(=O)C2C(O)CCN2c2nc(C)cc(C(F)(F)F)c2C#N)c1 is less than 90%
Result string: -1

Query string: Strictly below 90%: is that where viability, T/C of COc1ccc([C@@H](O)c2cc(-c3ncnc4cc(N5CCOCC5)ccc34)c(F)cc2Cl)nn1 + Cc1cccc(N(C)C(=O)C2C(O)CCN2c2nc(C)cc(C(F)(F)F)c2C#N)c1 sits?
Result string: 1
